# tested-on: Voltage-dependent N-type calcium channel subunit alpha-1B (Homo sapiens)
# measurement-description: disruptors of CaV2.2 binding to Mint1 – biochemical, HTRF (AID 2073)
# conditions-used: HTRF protein-protein interaction, Mint1-CaV2.2; at 20 µM
Out of some 290,000 compounds screened, about 570 (0.2%) were called active. About 1% were inconclusive and are not listed. Cut-off read from the data, not from the text of the source: active = inhibition mostly above about 51% (no sharp cut-off); inconclusive = no clear call, values can overlap the other calls; inactive = mostly below about 53%. The full list was thinned out, with actives kept by preference.
Outcomes: active, inactive

[[record]]
compound = "CCOc1ccc(N2C(=O)CC(S/C(N)=N/N=C/c3cccs3)C2=O)cc1 (stereo unspecified)"
group = "inactive"

[[record]]
compound = "CCOC(=O)C1=C(C)NC(=O)NC1c1ccc(Cl)cc1Cl (stereo unspecified)"
group = "inactive"

[[record]]
compound = "NC(=O)C1(C(N)=O)OC1c1ccc(Cl)cc1Cl (stereo unspecified)"
group = "inactive"

[[record]]
compound = "Cc1cc(C(=O)COc2cccnc2[N+](=O)[O-])c(C)n1Cc1cccs1"
group = "inactive"

[[record]]
compound = "CC(=O)C1(C)OC(N)=C(C#N)C(c2ccccc2)C1(C#N)C#N (stereo unspecified)"
group = "inactive"

[[record]]
compound = "Cc1cc(C(=O)COc2cccnc2[N+](=O)[O-])c(C)n1Cc1ccco1"
group = "active"

[[record]]
compound = "N#CC1=C(N)Nc2ncnn2C1c1ccc([N+](=O)[O-])cc1 (stereo unspecified)"
group = "inactive"

[[record]]
compound = "COC(=O)C1C(=O)NC(SC)=C(C#N)C1c1ccccc1 (stereo unspecified)"
group = "inactive"

[[record]]
compound = "N#CC1=C(N)SC(N)=C(C#N)C1c1ccc([N+](=O)[O-])cc1"
group = "inactive"

[[record]]
compound = "COCCn1c(C)cc(C(=O)COc2cccnc2[N+](=O)[O-])c1C"
group = "inactive"

[[record]]
compound = "Fc1ccc(N=c2ssnc2Cl)c(F)c1"
group = "active"


----------
# tested-on: Voltage-dependent N-type calcium channel subunit alpha-1B (Homo sapiens)
# measurement-description: disruptors of CaV2.2 binding to Mint1 – biochemical, HTRF (AID 2073)
# conditions-used: HTRF protein-protein interaction, Mint1-CaV2.2; at 20 µM
Among all 290,000 compounds or so, about 570 (0.2%) were called active. Not shown: some 1% with an inconclusive outcome. Rule as the data show it: active = inhibition mostly above about 51% (no sharp cut-off); inconclusive = no clear call, values can overlap the other calls; inactive = mostly below about 53%. The sample holds actives, similar compounds and a random draw of the others, so the mix is not that of the screen.
Outcomes: True (active), False (inactive)

[[record]]
molecule = "O=C1CCC/C(=N/NC(=O)c2sc3ccccc3c2Cl)C1"
group = "False"

[[record]]
molecule = "CCC(C)(C)n1nnnc1C(c1ccc(Cl)cc1)N1CCN(C)CC1 (configuration not stated)"
group = "False"

[[record]]
molecule = "CCCCCCc1nc(C(N)=O)c2[nH]c(=O)n(-c3ccccc3F)c2n1"
group = "False"

[[record]]
molecule = "O=C(Nc1ccc2oc(-c3ccccc3Cl)nc2c1)c1ncn[nH]1"
group = "False"

[[record]]
molecule = "CCOC(=O)/C(C#N)=C/c1cccc(F)c1"
group = "False"

[[record]]
molecule = "CC(=O)Oc1ccc2c(=O)c(/C=N/c3cc(=O)[nH]c(=S)[nH]3)coc2c1"
group = "False"

[[record]]
molecule = "O=C(Nc1ccc(N2CCOCC2)cc1Cl)C1CCN(C(=O)OCc2ccccc2)CC1"
group = "False"

[[record]]
molecule = "O=C(Nc1ccc2oc(-c3ccccc3F)nc2c1)c1ncn[nH]1"
group = "False"

[[record]]
molecule = "Cc1ccc(C(=O)c2ccccc2C(=O)OCC(=O)NC(C)(C)C)cc1"
group = "False"

[[record]]
molecule = "CCc1nnc(NS(=O)(=O)c2ccc(NCc3cc(Br)ccc3O)cc2)s1"
group = "False"

[[record]]
molecule = "O=Cc1cnc(N2CCOCC2)nc1"
group = "False"

[[record]]
molecule = "CC(/C=N/NC(=O)c1cc(-c2ccc3ccccc3c2)n[nH]1)=C\\c1ccco1"
group = "True"

[[record]]
molecule = "O=c1cc(/N=C/c2coc3cc(Br)ccc3c2=O)[nH]c(=S)[nH]1"
group = "False"

[[record]]
molecule = "Cc1ccc(C)c(SCC(=O)NC(=O)Nc2ccc3c(c2)OCCO3)c1"
group = "False"

[[record]]
molecule = "CCNc1ccc(Br)cc(C(=O)/C=C/c2ccc(Cl)cc2Cl)c1=O"
group = "False"

[[record]]
molecule = "O=C1C2C3C=CC(C3)C2C(=O)N1c1ccc(-c2nc3ccccc3o2)cc1 (configuration not stated)"
group = "False"

[[record]]
molecule = "CCn1c(=O)c(=O)[nH]c2cc(C(=O)Nc3ccc(S(=O)(=O)N4CCCC4)cc3)ccc21"
group = "False"

[[record]]
molecule = "Clc1ccc(-n2nnnc2SCc2cn3ccccc3n2)cc1"
group = "False"

[[record]]
molecule = "CC1=NN(C(N)=S)C(=O)C1N=Nc1c(Cl)cc([N+](=O)[O-])cc1Cl (configuration not stated)"
group = "False"

[[record]]
molecule = "COc1ccc(-c2cc3c(=O)n(CC(=O)Nc4cccc(Cl)c4)ncn3n2)cc1"
group = "False"

[[record]]
molecule = "COc1ccc(CCNC(=O)CCN2C(=O)[C@@H]3Cc4ccccc4CN3C2=O)cc1"
group = "False"

[[record]]
molecule = "O=c1cc(/N=C/c2coc3c(ccc4ccccc43)c2=O)[nH]c(=S)[nH]1"
group = "True"


----------
# tested-on: Voltage-dependent N-type calcium channel subunit alpha-1B (Homo sapiens)
# measurement-description: disruptors of CaV2.2 binding to Mint1 – biochemical, HTRF (AID 2073)
# conditions-used: HTRF protein-protein interaction, Mint1-CaV2.2; at 20 µM; stronger effect = higher value
In all, about 290,000 compounds went through this assay and about 570 (0.2%) were called active. About 1% were inconclusive and are not listed. The list comes from a sample in which actives are over-represented; it also holds close analogues and randomly drawn compounds.
Listed below: inhibition values for each entry.
value-kind: inhibition (%)

[[record]]
compound = "C#CCOCCOCCOCCNc1nc(N2CCN(C(=O)C(Cc3ccc(O)cc3)n3cc(C(N)CC(C)C)nn3)CC2)nc(N2CCN(C(=O)C(Cc3cc4ccccc4[nH]3)n3cc(C(N)Cc4ccc(O)cc4)nn3)CC2)n1 (stereo not given)"
value_kind = "inhibition"
experimental_result = 14.6

[[record]]
compound = "O=C(/C=C\\c1ccco1)Nc1nc(-c2ccccc2)cs1"
value_kind = "inhibition"
experimental_result = 0

[[record]]
compound = "O=C(/C=C/c1ccco1)Nc1nc(-c2ccccc2)cs1"
value_kind = "inhibition"
experimental_result = 26.4

[[record]]
compound = "O=C(/C=C/c1ccc2c(c1)OCO2)Nc1nc(-c2ccccc2)cs1"
value_kind = "inhibition"
experimental_result = 26

[[record]]
compound = "CCOC(=O)C1CCN(C(=O)Nc2ccc3nc(-c4ccco4)c(-c4ccco4)nc3c2)CC1"
value_kind = "inhibition"
experimental_result = 83.1

[[record]]
compound = "CCc1ccc(CN2CCC(n3nccc3NC(=O)c3ccc4c(c3)OCO4)CC2)cc1"
value_kind = "inhibition"
experimental_result = 2.8

[[record]]
compound = "Cc1cc(NC(=O)OC2CCCCC2)ccc1[N+](=O)[O-]"
value_kind = "inhibition"
experimental_result = -7.7

[[record]]
compound = "O=C(Nc1ccc2nc(-c3ccco3)c(-c3ccco3)nc2c1)N1CCN(c2ccccn2)CC1"
value_kind = "inhibition"
experimental_result = 84.9

[[record]]
compound = "Cc1nc2ccc(NC(=O)N3CCCCC3)cc2nc1C"
value_kind = "inhibition"
experimental_result = 40.3

[[record]]
compound = "Cc1nn(Cc2noc(C(=O)NCCc3ccccn3)n2)c(C)c1Br"
value_kind = "inhibition"
experimental_result = 7.3

[[record]]
compound = "O=C(Nc1ccc(N2CCOCC2)cc1)Nc1ccc2nc(-c3ccco3)c(-c3ccco3)nc2c1"
value_kind = "inhibition"
experimental_result = 48.8

[[record]]
compound = "CN1CCN(S(=O)(=O)c2cccc(C(=O)Oc3ccccc3Cl)c2)CC1"
value_kind = "inhibition"
experimental_result = 14.6

[[record]]
compound = "Cc1nc2cc(NC(=O)N3CCN(c4ccccn4)CC3)ccc2o1"
value_kind = "inhibition"
experimental_result = 0

[[record]]
compound = "O=C(/C=C/c1cccs1)Nc1nc(-c2ccccc2)cs1"
value_kind = "inhibition"
experimental_result = 10

[[record]]
compound = "O=C1N=C(N2CCN(c3ccccc3)CC2)S/C1=C/c1ccco1"
value_kind = "inhibition"
experimental_result = -5

[[record]]
compound = "Cc1ccc(-c2nc(CN(C)C3CCOC3)c(C)o2)s1 (stereo not given)"
value_kind = "inhibition"
experimental_result = 7.1

[[record]]
compound = "C#CCOCCOCCOCCNc1nc(N2CCN(C(=O)[C@H](Cc3cc4ccccc4[nH]3)n3cc([C@@H](N)Cc4ccc(O)cc4)nn3)CC2)nc(N2CCN(C(=O)[C@H](Cc3cc4ccccc4[nH]3)n3cc([C@@H](N)CC(C)C)nn3)CC2)n1"
value_kind = "inhibition"
experimental_result = 51.5

[[record]]
compound = "O=C(/C=C/c1ccccc1)Nc1nc(-c2ccncc2)cs1"
value_kind = "inhibition"
experimental_result = 54.1

[[record]]
compound = "COc1ccc(C(=O)N2CCCC(CO)(Cc3ccccc3C)C2)o1 (stereo not given)"
value_kind = "inhibition"
experimental_result = 2.1

[[record]]
compound = "O=C(/C=C/c1ccco1)Nc1nc(-c2ccccn2)cs1"
value_kind = "inhibition"
experimental_result = 54.1


The origin of these recorded values is PubChem BioAssay AID2073.
